System: ScN2a cells
CONDITIONS: mouse
Where a name gives a salt, the structure may show the parent alone.
ASSAY ENDPOINT: Concentration of inhibiting cell proliferation TC (µM)
Numeric only. Scale: µM

Exam item: GET Concentration of inhibiting cell proliferation TC where system = ScN2a cells and item = `Cc1cc(N)cc2nc(-c3ccc(N)c(Cl)c3)[nH]c12`
Marked response: 10

Exam item: GET Concentration of inhibiting cell proliferation TC where system = ScN2a cells and item = `CNc1ccc(/C=C/c2ccc3ccccc3n2)cc1`
Marked response: 100

Exam item: GET Concentration of inhibiting cell proliferation TC where system = ScN2a cells and item = `CN(C)c1ccc(/C=C/c2cccs2)cc1`
Marked response: 10

Exam item: GET Concentration of inhibiting cell proliferation TC where system = ScN2a cells and item = `CNc1ccc(/C=C/C=C/C=C/c2ccc3ccccc3n2)cc1`
Marked response: 100

Exam item: GET Concentration of inhibiting cell proliferation TC where system = ScN2a cells and item = CNc1ccc(-c2ccc3ccccc3n2)cc1 [BF-158, 2-[(4-methylamino)-phenyl]quinoline]
Marked response: 100

Exam item: GET Concentration of inhibiting cell proliferation TC where system = ScN2a cells and item = `CN(C)c1ccc(/C=C/c2ccco2)cc1`
Marked response: 100

Exam item: GET Concentration of inhibiting cell proliferation TC where system = ScN2a cells and item = `Nc1ccc(C(=O)Nc2ccc(-c3nc4ccc(NC(=O)c5ccc(N)cc5)c(Cl)c4[nH]3)cc2)cc1`
Marked response: 10

Exam item: GET Concentration of inhibiting cell proliferation TC where system = ScN2a cells and item = `CN(C)c1ccc(/C=C/c2nc3ccccc3o2)cc1`
Marked response: 50

Exam item: GET Concentration of inhibiting cell proliferation TC where system = ScN2a cells and item = `CNc1ccc(C=Cc2ccc3ccccc3n2)c(CF)c1`
Marked response: 10

Exam item: GET Concentration of inhibiting cell proliferation TC where system = ScN2a cells and item = `CNc1ccc(/C=C/c2nc3cc(F)ccc3o2)cc1`
Marked response: 50

Exam item: GET Concentration of inhibiting cell proliferation TC where system = ScN2a cells and item = `CN(C)c1ncc(/C=C/c2nc3ccc(OCCF)cc3o2)s1`
Marked response: 10

Exam item: GET Concentration of inhibiting cell proliferation TC where system = ScN2a cells and item = `Clc1ccc(/C=C/c2nc3ccccc3s2)c(Cl)c1`
Marked response: 100

Exam item: GET Concentration of inhibiting cell proliferation TC where system = ScN2a cells and item = `CNc1ccc(/C=C/c2nc3ccc(O)cc3o2)cc1`
Marked response: 100

Exam item: GET Concentration of inhibiting cell proliferation TC where system = ScN2a cells and item = `Nc1ccc(/C=C/c2nc3cc(I)ccc3o2)cc1`
Marked response: 100

Exam item: GET Concentration of inhibiting cell proliferation TC where system = ScN2a cells and item = `CN(C)c1ncc(/C=C/c2nc3ccccc3o2)s1`
Marked response: 10

Exam item: GET Concentration of inhibiting cell proliferation TC where system = ScN2a cells and item = `Clc1ccc2nc(-c3cc(-c4ccccc4)no3)cn2c1`
Marked response: 100

Exam item: GET Concentration of inhibiting cell proliferation TC where system = ScN2a cells and item = CCN(CC)c1ccc(/C=C/c2nc3ccccc3o2)cc1 [BF-125, hydrochloride]
Marked response: 50

Exam item: GET Concentration of inhibiting cell proliferation TC where system = ScN2a cells and item = `C(=C\c1nc2ccccc2[nH]1)/c1ccccc1`
Marked response: 100

Exam item: GET Concentration of inhibiting cell proliferation TC where system = ScN2a cells and item = `Clc1ccccc1/C=C/c1nc2ccccc2s1`
Marked response: 100

Exam item: GET Concentration of inhibiting cell proliferation TC where system = ScN2a cells and item = `CN(C)c1ccc(/C=C/c2ccc3ccccc3n2)cc1`
Marked response: 5

Exam item: GET Concentration of inhibiting cell proliferation TC where system = ScN2a cells and item = `CN(C)c1ccc2cc(-c3nc4cc(F)ccc4o3)ccc2c1`
Marked response: 100

Exam item: GET Concentration of inhibiting cell proliferation TC where system = ScN2a cells and item = `CN(C)c1ccc(/C=C/c2ccc3ccccc3n2)c(O)c1`
Marked response: 10

Exam item: GET Concentration of inhibiting cell proliferation TC where system = ScN2a cells and item = `Cc1ccn2cc(-c3ccccc3)nc2c1`
Marked response: 100

Exam item: GET Concentration of inhibiting cell proliferation TC where system = ScN2a cells and item = `CN(C)c1ccc(/C=C/c2nc3cc([N+](=O)[O-])ccc3o2)cc1`
Marked response: 100
